- System: Escherichia coli TOP10
- assay: shrunken log2 fold change of peptide-encoding DNA abundance (4.5 h post-induction vs induction); higher = less antimicrobial activity (less host growth inhibition)
- run conditions: time post-induction: 4.5 h; library: site-saturation at positions 5, 18, 19, 20

{"columns": ["primary sequence", "shrunken log2 fold change"],
 "data": [
  ["RRIRPRPPRLPRPRPRPIWGPRP", 0.0815],
  ["RRIRCRPPRLPRPRPRPSENPRP", -0.154],
  ["RRIRLRPPRLPRPRPRPFGMPRP", -0.205],
  ["RRIRQRPPRLPRPRPRPLCEPRP", -0.0868],
  ["RRIRQRPPRLPRPRPRPLITPRP", -0.281],
  ["RRIRIRPPRLPRPRPRPHIDPRP", -0.0031],
  ["RRIRWRPPRLPRPRPRPDNMPRP", -0.0443],
  ["RRIRGRPPRLPRPRPRPTKCPRP", 0.684],
  ["RRIRPRPPRLPRPRPRPSACPRP", 0.0137],
  ["RRIRGRPPRLPRPRPRPPIIPRP", -0.0886],
  ["RRIRVRPPRLPRPRPRPEKNPRP", 0.0805],
  ["RRIRRRPPRLPRPRPRPPSVPRP", 0.545],
  ["RRIRNRPPRLPRPRPRPEEQPRP", 0.202],
  ["RRIRWRPPRLPRPRPRPFPHPRP", 0.29],
  ["RRIRWRPPRLPRPRPRPDHNPRP", -0.302],
  ["RRIRNRPPRLPRPRPRPRGVPRP", 0.195],
  ["RRIRCRPPRLPRPRPRPHRIPRP", -0.492],
  ["RRIRMRPPRLPRPRPRPQHHPRP", -0.0825],
  ["RRIRNRPPRLPRPRPRPMLQPRP", 0.00157],
  ["RRIRIRPPRLPRPRPRPCQYPRP", -1.06],
  ["RRIRPRPPRLPRPRPRPSSMPRP", -0.29],
  ["RRIRRRPPRLPRPRPRPTEIPRP", 0.299],
  ["RRIRTRPPRLPRPRPRPLHGPRP", 0.184],
  ["RRIRKRPPRLPRPRPRPCTQPRP", -0.0701],
  ["RRIRQRPPRLPRPRPRPVRRPRP", -0.00994],
  ["RRIRPRPPRLPRPRPRPGEPPRP", 0.0896]
]}

---

- Test system: Escherichia coli TOP10;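 further: peptides expressed intracellularly from a pBAD plasmid library in pooled LB shake-flask culture, induced with 0.3% L-arabinose, DNA abundance read by NGS, three biological replicates, DESeq2 with apeglm shrinkage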
- assay: shrunken log2 fold change of peptide-encoding DNA abundance (4.5 h post-induction vs induction); higher = less antimicrobial activity (less host growth inhibition)
- run conditions: time post-induction: 4.5 h; library: site-saturation at positions 5, 18, 19, 20

{"columns": ["primary sequence", "shrunken log2 fold change"],
 "data": [
  ["RRIRTRPPRLPRPRPRPQECPRP", -0.0262],
  ["RRIRVRPPRLPRPRPRPFRFPRP", 0.0201],
  ["RRIRMRPPRLPRPRPRPRQVPRP", 0.388],
  ["RRIRARPPRLPRPRPRPAILPRP", -0.087],
  ["RRIRHRPPRLPRPRPRPDDKPRP", -0.359],
  ["RRIRPRPPRLPRPRPRPPPPPRP", 0.85],
  ["RRIRHRPPRLPRPRPRPFQFPRP", 0.0952],
  ["RRIRQRPPRLPRPRPRPWWDPRP", 0.00367],
  ["RRIRSRPPRLPRPRPRPQPNPRP", -0.00561],
  ["RRIRTRPPRLPRPRPRPESNPRP", -0.178],
  ["RRIRPRPPRLPRPRPRPRNPPRP", 0.405],
  ["RRIRPRPPRLPRPRPRPITAPRP", -0.187],
  ["RRIRGRPPRLPRPRPRPIIVPRP", -0.043],
  ["RRIRYRPPRLPRPRPRPKRCPRP", 0.0441],
  ["RRIRSRPPRLPRPRPRPTSMPRP", -0.187],
  ["RRIRDRPPRLPRPRPRPWSSPRP", 0.0046],
  ["RRIRKRPPRLPRPRPRPRVCPRP", 0.282],
  ["RRIRYRPPRLPRPRPRPCLKPRP", -0.0431],
  ["RRIRNRPPRLPRPRPRPYLCPRP", -0.0174],
  ["RRIRTRPPRLPRPRPRPGLTPRP", -0.0361],
  ["RRIRGRPPRLPRPRPRPHTFPRP", -0.0226],
  ["RRIRYRPPRLPRPRPRPFEMPRP", -0.738],
  ["RRIRFRPPRLPRPRPRPNNTPRP", -0.999],
  ["RRIRYRPPRLPRPRPRPYTYPRP", -0.438],
  ["RRIRDRPPRLPRPRPRPDLYPRP", 0.309],
  ["RRIRLRPPRLPRPRPRPGCIPRP", -0.346],
  ["RRIRARPPRLPRPRPRPDQPPRP", 0.0452],
  ["RRIRFRPPRLPRPRPRPHVDPRP", -0.00919],
  ["RRIRYRPPRLPRPRPRPPQLPRP", -0.371],
  ["RRIRIRPPRLPRPRPRPGYEPRP", -0.237],
  ["RRIRNRPPRLPRPRPRPNWRPRP", 0.216],
  ["RRIRERPPRLPRPRPRPFYLPRP", -0.648],
  ["RRIRQRPPRLPRPRPRPAVIPRP", 0.135],
  ["RRIRTRPPRLPRPRPRPQHCPRP", -0.0947],
  ["RRIRTRPPRLPRPRPRPFINPRP", -0.161],
  ["RRIRHRPPRLPRPRPRPYHKPRP", -0.412],
  ["RRIRGRPPRLPRPRPRPDASPRP", 1.34],
  ["RRIRDRPPRLPRPRPRPAAGPRP", 0.793],
  ["RRIRERPPRLPRPRPRPTFVPRP", 0.0579],
  ["RRIRARPPRLPRPRPRPGPWPRP", 0.193],
  ["RRIRSRPPRLPRPRPRPNQAPRP", -0.169],
  ["RRIRLRPPRLPRPRPRPNDFPRP", -0.0142],
  ["RRIRTRPPRLPRPRPRPGEIPRP", -0.26],
  ["RRIRSRPPRLPRPRPRPEAAPRP", 0.873],
  ["RRIRGRPPRLPRPRPRPQTNPRP", 0.433],
  ["RRIRKRPPRLPRPRPRPGFTPRP", 0.0173],
  ["RRIRCRPPRLPRPRPRPFHSPRP", -0.458],
  ["RRIRGRPPRLPRPRPRPVHKPRP", 0.518],
  ["RRIRFRPPRLPRPRPRPLPYPRP", -0.101],
  ["RRIRVRPPRLPRPRPRPPIPPRP", 0.242],
  ["RRIRIRPPRLPRPRPRPRQCPRP", -0.127],
  ["RRIRRRPPRLPRPRPRPVLFPRP", 0.315],
  ["RRIRARPPRLPRPRPRPHQKPRP", -0.0267],
  ["RRIRWRPPRLPRPRPRPHMSPRP", 0.033],
  ["RRIRIRPPRLPRPRPRPKQIPRP", -0.205]
]}
